Kd listing for selected binders.
Molecular target: C-terminal deletion mutant ΔC2 of streptavidin C1 (amino acids 1-158) (Streptomyces cinnamonensis)
Assay: MST; Monolith NT.115; 200 nM His-tag-labelled (RED-tris-NTA) ΔC1-His or ΔC2-His, unlabelled peptide 2.4414-80 000 nM, PBS with 0.05% Tween 20, 10 min at room temperature, measured at 25°C, 40% LED power, 60% MST power, triplicate

[
  {
    "BINDER": "LGVTSANPPASDGE [ECP peptide (extension C-terminal peptide) of streptavidin C1]",
    "Kd [µM]": 0.11
  },
  {
    "BINDER": "SAADVEKARQLGVTSANPPASDGE [C-Lid_ECP peptide of streptavidin C1]",
    "Kd [µM]": 7.3
  }
]
